assay: Half life in rat at 2.5 mg/kg, po and 2.5 mg/kg, iv; format: ADME, organism-based; conditions: in vivo
measurementKind: half-life (min)
Kindly provide the numeric value in min only, without the unit symbol.

# molecule `Cc1ccc(Sc2ccc(O)cc2)c(Nc2ncnc3nc(C(C)C)ccc23)c1` ; its half-life = 186

----------
system: Hepatitis C virus; assay: Antiviral activity against Hepatitis C virus subtype 1a infected in HuH7 cells assessed as inhibition of viral replication by RT-PCR analysis in the presence of fetal calf serum; format: functional, organism-based, Hepacivirus hominis; settings: Huh-7
The reader will find reported EC50 values listed item by item below.
Write the answer as a number in µM, unit excluded.

>  <givenSmiles>
CC(=O)Nc1ccc(Sc2ccc(C)cc2Nc2ncnc3nc(C4CCC4)ccc23)cc1

>  <EC50 / µM>
15.8

$$$$

Reported EC50 of `Cc1ccc(Sc2ccccc2)c(Nc2ncnc3nc(C4CC4)ccc23)c1` : 10.4

The molecule listed as `CCCc1ccc2c(Nc3cc(C)ccc3Sc3ccccc3)ncnc2n1` shows EC50 equal to 9.5

Quick note, EC50 for `Cc1ccc(Sc2ccc(O)cc2)c(Nc2ncnc3nc(N4CCCCC4)ncc23)c1` landed at 22

Just so you know, measured EC50 for `CCNc1ncc2c(Nc3cc(C)ccc3Sc3ccc(O)cc3)ncnc2n1` came out at 47.6

----------
experiment: Cytotoxicity against human HuH7 cells by MTT assay; assay type: cell-based, Huh-7; conditions: read-out: TD50 (the source's name)
Recorded CC50 by entry
Write the answer as a number in µM, unit excluded.

Value of CC50 reported for the compound `CC(=O)Nc1ccc(Sc2ccc(C)cc2Nc2ncnc3nc(C4CC4)ccc23)cc1` is 29.8

The reported CC50 of the compound `Cc1ccc(Sc2ccc(O)cc2)c(Nc2ncnc3nc(Oc4ccccc4)ncc23)c1` was 17.1

----------
system: Hepatitis C virus; test: Antiviral activity against Hepatitis C virus subtype 1a infected in HuH7 cells assessed as inhibition of viral replication by RT-PCR analysis in the presence of fetal calf serum; type: functional, organism-based, Hepacivirus hominis; settings: Huh-7
measurementKind: pEC50
Quick note: pEC50 values are minus log10 of concentrations in mol/L.

>  <givenSmiles>
CCSc1ncc2c(Nc3cc(C)ccc3Sc3ccc(O)cc3)ncnc2n1

>  <pEC50>
5.32

$$$$
>  <givenSmiles>
Cc1ccc(Sc2ccc(O)cc2)c(Nc2ncnc3nc(C4CCCCC4)ccc23)c1

>  <pEC50>
5.57

$$$$
>  <givenSmiles>
CCc1ccc2c(Nc3cc(C)ccc3Sc3ccccc3)ncnc2n1

>  <pEC50>
4.72

$$$$
>  <givenSmiles>
Cc1ccc(Sc2ccccc2)c(Nc2ncnc3nc(CC(C)C)ccc23)c1

>  <pEC50>
4.88

$$$$
>  <givenSmiles>
Cc1ccc(Sc2ccc(O)cc2)c(Nc2ncnc3nc(C4CCC4)ccc23)c1

>  <pEC50>
4.95

$$$$
>  <givenSmiles>
CCCc1ccc2c(Nc3cc(C)ccc3Sc3ccc(NC(C)=O)cc3)ncnc2n1

>  <pEC50>
4.86

$$$$
>  <givenSmiles>
Cc1ccc(Sc2ccc(O)cc2)c(Nc2ncnc3nc(N4CCOCC4)ncc23)c1

>  <pEC50>
4.85

$$$$
>  <givenSmiles>
CC(=O)Nc1ccc(Sc2ccc(C)cc2Nc2ncnc3nc(C4CC4)ccc23)cc1

>  <pEC50>
4.82

$$$$
>  <givenSmiles>
Cc1ccc(Sc2ccccc2)c(Nc2ccnc3nc(C)ccc23)c1

>  <pEC50>
5.74

$$$$
>  <givenSmiles>
Cc1ccc(Sc2ccc(F)cc2)c(Nc2ncnc3nc(C)ccc23)c1

>  <pEC50>
4.98

$$$$

Value of pEC50 reported for the molecule `Cc1ccc(Sc2ccc(O)cc2)c(Nc2ncnc3nc(CC(C)C)ccc23)c1` is 4.84

The reported pEC50 of the molecule `COc1ccc(Sc2ccc(C)cc2Nc2ncnc3nc(C(C)C)ccc23)cc1` was 4.94

Recorded result, `Cc1ccc(Sc2ccc(O)cc2)c(Nc2ncnc3nc(C(C)C)ccc23)c1` , pEC50: 6.77

Short answer for `Cc1ccc(Sc2ccc(O)cc2)c(Nc2ncnc3nc(C(C)(C)C)ccc23)c1` : pEC50 was 5.34

Reported pEC50 ( `Cc1ccc(Sc2ccc(O)cc2)c(Nc2ncnc3nc(C4CC4)ccc23)c1` ) = 4.98

// `Cc1ccc(Sc2ccc(F)cc2)c(Nc2ncnc3nc(C(C)C)ccc23)c1` : pEC50 value = 5.49

Briefly, pEC50 measured for `CC(=O)Nc1ccc(Sc2ccc(C)cc2Nc2ncnc3nc(CC(C)C)ccc23)cc1` : 4.56

// field: pEC50; key: `CCc1ccc2c(Nc3cc(C)ccc3Sc3ccc(O)cc3)ncnc2n1` ; value = 4.21

Reported pEC50 for `CC(=O)Nc1ccc(Sc2ccc(C)cc2Nc2ncnc3nc(C(C)C)ccc23)cc1` was 5.59

get_value(item= `CCOc1ncc2c(Nc3cc(C)ccc3Sc3ccc(O)cc3)ncnc2n1` , readout=pEC50) returns 5.14

----------
system: Hepatitis C virus; assay: Antiviral activity against Hepatitis C virus subtype 1a infected in HuH7 cells assessed as inhibition of viral replication by RT-PCR analysis in the presence of fetal calf serum; type: functional, organism-based, Hepacivirus hominis; settings: Huh-7
measurementKind: EC50 (µM)
Express your answer in µM, writing the number without its unit.

Examples with their reported EC50 follow.
>  <givenSmiles>
Cc1ccc(Sc2ccccc2)c(Nc2ncnc3nc(C)ccc23)c1

>  <EC50 [µM]>
13.3

$$$$
>  <givenSmiles>
COc1ccc(Sc2ccc(C)cc2Nc2ncnc3nc(C)ccc23)cc1

>  <EC50 [µM]>
44.5

$$$$
>  <givenSmiles>
Cc1ccc(Sc2ccc(O)cc2)c(Nc2ncnc3nc(Oc4ccccc4)ncc23)c1

>  <EC50 [µM]>
5.3

$$$$
>  <givenSmiles>
CCCc1ccc2c(Nc3cc(C)ccc3Sc3ccc(O)cc3)ncnc2n1

>  <EC50 [µM]>
7.1

$$$$
>  <givenSmiles>
Cc1ccc(Sc2ccc(NS(C)(=O)=O)cc2)c(Nc2ncnc3nc(C(C)C)ccc23)c1

>  <EC50 [µM]>
18.9

$$$$
>  <givenSmiles>
Cc1ccc(Sc2ccccc2)c(Nc2cccc3nc(C)ccc23)c1

>  <EC50 [µM]>
15.7

$$$$
>  <givenSmiles>
Cc1ccc(Sc2ccc(O)cc2)c(Nc2ncnc3nc(C)ccc23)c1

>  <EC50 [µM]>
23.4

$$$$
>  <givenSmiles>
Cc1ccc(Sc2ccccc2)c(Nc2ncnc3nc(C(C)C)ccc23)c1

>  <EC50 [µM]>
10.3

$$$$

Proceeding to the next compound to report its EC50.
Please fill in: EC50 reported for `Cc1ccc(Sc2ccccc2)c(Nc2ncnc3nc(C4CCC4)ccc23)c1` = 6.1

----------
assay: Cytotoxicity against human HuH7 cells by MTT assay; assay type: cell-based, Huh-7; settings: read-out: TD50 (the source's name)
measurementKind: CC50 (µM)
# value in µM; strip the unit string

// known answers, use as guide
>  <givenSmiles>
COc1ccc(Sc2ccc(C)cc2Nc2ncnc3nc(C(C)C)ccc23)cc1

>  <CC50, µM>
8.8

$$$$
>  <givenSmiles>
COc1ccc(Sc2ccc(C)cc2Nc2ncnc3nc(C)ccc23)cc1

>  <CC50, µM>
28.6

$$$$

Proceeding to the next compound to report its CC50.
Recorded CC50 (compound `Cc1ccc(Sc2ccc(F)cc2)c(Nc2ncnc3nc(C(C)C)ccc23)c1` ): 4.8

----------
CC50 values by entry
assay: Cytotoxicity against human HuH7 cells by MTT assay; type: cell-based, Huh-7; settings: read-out: TD50 (the source's name)

Consider the worked cases shown below.
>  <givenSmiles>
Cc1ccc(Sc2ccc(O)cc2)c(Nc2ncnc3nc(C4CCCCC4)ccc23)c1

>  <CC50>
> 3.12 µM

$$$$
>  <givenSmiles>
Cc1ccc(Sc2ccc(O)cc2)c(Nc2ncnc3nc(N4CCCCC4)ncc23)c1

>  <CC50>
> 50 µM

$$$$

# evaluate next
For `CCc1ccc2c(Nc3cc(C)ccc3Sc3ccc(NC(C)=O)cc3)ncnc2n1` the compound record lists CC50 as > 12.5 µM

----------
system: Hepatitis C virus; assay: Antiviral activity against Hepatitis C virus subtype 1a infected in HuH7 cells assessed as inhibition of viral replication by RT-PCR analysis in the presence of fetal calf serum; assay type: functional, organism-based, Hepacivirus hominis; details: Huh-7
pEC50: −log10 of the molar value.
Catalogue of pEC50 readings, one per entry.

Solved entries (count: 2):
>  <givenSmiles>
CCc1ccc2c(Nc3cc(C)ccc3Sc3ccc(NC(C)=O)cc3)ncnc2n1

>  <pEC50>
< 4.90

$$$$
>  <givenSmiles>
COc1ncc2c(Nc3cc(C)ccc3Sc3ccc(O)cc3)ncnc2n1

>  <pEC50>
< 5.10

$$$$

Short answer for `Cc1ccc(Sc2ccc(O)cc2)c(Nc2ncnc3nc(N(C)C)ncc23)c1` : pEC50 was < 4.30

Source: ChEMBL document CHEMBL1955843
